- target-of-assay: CRBN (Homo sapiens)
- Construct: expressed in transfected cells; host or cells: HEK293T
- assay-method-text: Competition Assay: MAPPIT-like, competition with trimethoprim-lenalidomide hybrid ligand for binding to CRBN in HEK293T cells
- Type: cell-based
- test-context: protocol and reagents of Example 1; read-out: IC50 Competition
- Source text: A bait protein (protein A) is expressed as a fusion protein in which it is genetically fused to an engineered intracellular receptor domain of the leptin receptor, which is itself fused to the extracellular domain of the erythropoietin (Epo) receptor. […] Activation of STAT3 can be monitored by introduction of a STAT3-responsive reporter gene, including a luciferase-encoding gene or a gene encoding a fluorescent marker such as GFP or some other type of fluorescent protein (EGF etc.). […]
pIC50: −log10 of the molar value.
# pIC50 >= 7 gives t, anything below gives f

I'd appreciate it if you could say whether O=C(O)CNc1ccc2c(c1)CN(C1CCC(=O)NC1=O)C2=O (centres unmarked) has pIC50 at least equal to 7.
f

I'd appreciate it if you could say whether COc1ccc(Br)c2c1C(=O)N(C1CCC(=O)NC1=O)C2 (centres unmarked) has pIC50 at least equal to 7.
t

I'd appreciate it if you could say whether O=C1CCC(N2Cc3ccc(-c4ccccc4)cc3C2=O)C(=O)N1 (centres unmarked) has pIC50 at least equal to 7.
f

I'd appreciate it if you could say whether N#CC1c2ccccc2C(=O)N1C1CCC(=O)NC1=O (centres unmarked) has pIC50 at least equal to 7.
f

I'd appreciate it if you could say whether O=C1CCC(N2Cc3c(Cl)cccc3C2=O)C(=O)N1 (centres unmarked) has pIC50 at least equal to 7.
t

I'd appreciate it if you could say whether O=C1CCC(CN2C(=O)c3ccccc3C2=O)C(=O)N1 (centres unmarked) has pIC50 at least equal to 7.
f

I'd appreciate it if you could say whether O=C1CC=CC(C(=O)NC2CCC(=O)NC2=O)=N1 (centres unmarked) has pIC50 at least equal to 7.
f

I'd appreciate it if you could say whether O=C1CCC(N2Cc3ccc(NCC(=O)NC4CCOCC4)cc3C2=O)C(=O)N1 (centres unmarked) has pIC50 at least equal to 7.
f

I'd appreciate it if you could say whether Cc1cccc2c1CN(C1CCC(=O)NC1=O)C2=O (centres unmarked) has pIC50 at least equal to 7.
t

I'd appreciate it if you could say whether O=C1c2ccccc2CC1n1ccc(=O)[nH]c1=O (centres unmarked) has pIC50 at least equal to 7.
f

I'd appreciate it if you could say whether N#Cc1cccc2c1C(=O)N(C1CCC(=O)NC1=O)C2 (centres unmarked) has pIC50 at least equal to 7.
f

I'd appreciate it if you could say whether O=C1CCC(N2Cc3cc4c(cc3C2=O)OCO4)C(=O)N1 (centres unmarked) has pIC50 at least equal to 7.
f

I'd appreciate it if you could say whether O=C1CCC(N2Cc3cccc([N+](=O)[O-])c3C2=O)C(=O)N1 (centres unmarked) has pIC50 at least equal to 7.
f

I'd appreciate it if you could say whether O=C1CCC(N2Cc3ccc(NC(=O)C4=C5C=CN=C5N=CC4)cc3C2=O)C(=O)N1 (centres unmarked) has pIC50 at least equal to 7.
f

I'd appreciate it if you could say whether O=C1CCC(N2C(=O)CC3(CCOCC3)C2=O)C(=O)N1 (centres unmarked) has pIC50 at least equal to 7.
f

I'd appreciate it if you could say whether O=C1CCC(N2Cc3cc(Nc4ncccn4)ccc3C2=O)C(=O)N1 (centres unmarked) has pIC50 at least equal to 7.
t

I'd appreciate it if you could say whether O=C1CCC(N2Cc3ccc(NCC(=O)Nc4ccccc4)cc3C2=O)C(=O)N1 (centres unmarked) has pIC50 at least equal to 7.
f

I'd appreciate it if you could say whether CC1CCCN(C(=O)CNc2ccc3c(c2)C(=O)N(C2CCC(=O)NC2=O)C3)C1 (centres unmarked) has pIC50 at least equal to 7.
t

I'd appreciate it if you could say whether CCOC(=O)Nc1cccc2c1CN(C1CCC(=O)NC1=O)C2=O (centres unmarked) has pIC50 at least equal to 7.
f

I'd appreciate it if you could say whether `O=C1N=c2ccc(NC(=O)NCc3ccccc3)cc2=N1` has pIC50 at least equal to 7.
f

I'd appreciate it if you could say whether CN(C)C1c2ccccc2C(=O)N1C1CCC(=O)NC1=O (centres unmarked) has pIC50 at least equal to 7.
f

I'd appreciate it if you could say whether CN(C)c1ccc2c(c1)C(=O)N(C1CCC(=O)NC1=O)C2 (centres unmarked) has pIC50 at least equal to 7.
f

I'd appreciate it if you could say whether N#Cc1ccc2c(c1)C(=O)N(C1CCC(=O)NC1=O)C2 (centres unmarked) has pIC50 at least equal to 7.
f

I'd appreciate it if you could say whether O=C1CCC(N2Cc3ncccc3C2=O)C(=O)N1 (centres unmarked) has pIC50 at least equal to 7.
f

I'd appreciate it if you could say whether CN(C)CC(=O)Nc1ccc2c(c1)C(=O)N(C1CCC(=O)NC1=O)C2 (centres unmarked) has pIC50 at least equal to 7.
f

I'd appreciate it if you could say whether O=C1CCC(N2Cc3cc(-c4ccccc4)ccc3C2=O)C(=O)N1 (centres unmarked) has pIC50 at least equal to 7.
f

I'd appreciate it if you could say whether O=C1CCC(N2C(=O)C=C(c3ccccc3)C2=O)C(=O)N1 (centres unmarked) has pIC50 at least equal to 7.
f

I'd appreciate it if you could say whether O=C(O)CN1CCN(Cc2ccc(COc3cccc4c3CN(C3CCC(=O)NC3=O)C4=O)cc2)CC1 (centres unmarked) has pIC50 at least equal to 7.
f

I'd appreciate it if you could say whether Cc1cccc2c(=O)n(C3CCC(=O)NC3=O)nnc12 (centres unmarked) has pIC50 at least equal to 7.
f

I'd appreciate it if you could say whether O=C1CCC(N2Cc3ccc(NC(=O)c4ccc5cnccc5n4)cc3C2=O)C(=O)N1 (centres unmarked) has pIC50 at least equal to 7.
t

I'd appreciate it if you could say whether N#Cc1cccc2c1CN(C1CCC(=O)NC1=O)C2=O (centres unmarked) has pIC50 at least equal to 7.
f

I'd appreciate it if you could say whether O=C(CNc1ccc2c(c1)CN(C1CCC(=O)NC1=O)C2=O)NCc1ccccc1 (centres unmarked) has pIC50 at least equal to 7.
f

###

- target-of-assay: SALL4 (Homo sapiens, UniProt Q96SW2+Q9UJQ4)
- Construct: Full size proteins are fused for each of the target proteins tested
- assay-method-text: Recruitment Assay (MAPPIT-like): SALL4 recruitment, pSEL-SALL4+pMG1-CRBN
- test-context: recruitment of SALL4, protocol of Example 2; read-out: EC50_SALL4
- Method: In this experimental set-up, cells are transfected with a construct encoding a CRBN-fusion protein and another one encoding a substrate-fusion protein. Test compound activity is assessed with increasing concentrations of test compounds (dose-response studies) to monitor the ability to promote CRBN-ligand-induced protein interaction. Full size proteins are fused for each of the target proteins tested, except in the case of IKZF1 where isoform 7 is used, and BRD4, where isoform 3 is applied. […]
Binarize EC50 at 500 nM; below is 1.0, at or above is 0.0.

Strictly below 500 nM in EC50? N#Cc1ccc2c(c1)C(=O)N(C1CCC(=O)NC1=O)C2 (centres unmarked) [Compound C48007]
1.0

Strictly below 500 nM in EC50? CCOC(=O)NCCNc1ccc2c(c1)CN(C1CCC(=O)NC1=O)C2=O (centres unmarked) [Compound C35754]
1.0

Strictly below 500 nM in EC50? N#Cc1ccc2c(c1)CN(C1CCC(=O)NC1=O)C2=O (centres unmarked) [Compound C48005]
0.0

Strictly below 500 nM in EC50? O=C(O)CNc1ccc2c(c1)CN(C1CCC(=O)NC1=O)C2=O (centres unmarked) [Compound C47995]
0.0

Strictly below 500 nM in EC50? O=C1CCC(N2Cc3cc(NCCNC(=O)Nc4ccccc4)ccc3C2=O)C(=O)N1 (centres unmarked) [Compound C35751]
1.0

Strictly below 500 nM in EC50? O=C1CCC(N2Cc3c(NC(=O)Nc4cccc5c4CN(C4CCC(=O)NC4=O)C5=O)cccc3C2=O)C(=O)N1 (centres unmarked) [Compound C30231]
0.0

Strictly below 500 nM in EC50? O=C(O)CNc1cccc2c1C(=O)N(C1CCC(=O)NC1=O)C2 (centres unmarked) [Compound C47998]
0.0

Strictly below 500 nM in EC50? O=C(CNc1ccc2c(c1)CN(C1CCC(=O)NC1=O)C2=O)NCc1ccccc1 (centres unmarked) [Compound C35856]
1.0

###

For each record, write down the corresponding pEC50.
- target-of-assay: SALL4 (Homo sapiens, UniProt Q96SW2+Q9UJQ4)
- Construct: Full size proteins are fused for each of the target proteins tested
- assay-method-text: Recruitment Assay (MAPPIT-like): SALL4 recruitment, pSEL-SALL4+pMG1-CRBN
- test-context: recruitment of SALL4, protocol of Example 2; read-out: EC50_SALL4
Lab note: report pEC50 as minus log10 of the concentration in molar units, number only.

molecule O=C(O)CN1CCN(Cc2ccc(COc3cccc4c3CN(C3CCC(=O)NC3=O)C4=O)cc2)CC1 (stereo not drawn) , pEC50 observed: 6.10

molecule CN(C)CC(=O)Nc1cccc2c1CN(C1CCC(=O)NC1=O)C2=O (stereo not drawn) , pEC50 observed: 5.94

molecule O=C1CCC(N2C(=O)C3=C(C2=O)c2ccccc2CC3)C(=O)N1 (stereo not drawn) , pEC50 observed: 5.83

molecule O=C1CCC(N2Cc3cc(-c4ccccc4)ccc3C2=O)C(=O)N1 (stereo not drawn) , pEC50 observed: 6.91

molecule O=C1CCC(N2C(=O)c3ccccc3C2NCc2ccccc2)C(=O)N1 (stereo not drawn) , pEC50 observed: 5.94

molecule Cc1ccc2c(=O)n(C3CCC(=O)NC3=O)nnc2c1 (stereo not drawn) , pEC50 observed: 6.04

molecule O=C1CCC(N2Cc3ccc(Nc4ncc5c(n4)COC5)cc3C2=O)C(=O)N1 (stereo not drawn) , pEC50 observed: 6.82

molecule O=C1CCC(N2Cc3ccc(NC(=O)c4cnc5nccn5c4)cc3C2=O)C(=O)N1 (stereo not drawn) , pEC50 observed: 5.86
